experimental details: Toxicokinetics in rats
Type: in vivo
applied conditions: Sprague Dawley, rat, plasma, oral; rats, 0.3 mg/kg, estimated proportional to reported kinetics at 1 mg/kg (US FDA [2012])
recorded endpoint: Cmax

### Prompt Give recorded Cmax. C/C(O)=C(\C#N)C(=O)Nc1ccc(C(F)(F)F)cc1 [Teriflunomide]
### Response ~3000 ng/mL

---

experimental details: Toxicokinetics in rats
Type: in vivo
applied conditions: Thy1-GFP transgenic, plasma; rat, dose of 0.2 mg/kg, calculated from mouse volume of distribution
recorded endpoint: Cmax (ng/mL)
Answer with a number only, understood to be in ng/mL.

### Prompt Give recorded Cmax. COC1=C2C[C@@H](C)C[C@H](OC)[C@H](O)[C@@H](C)/C=C(\C)[C@H](OC(N)=O)[C@@H](OC)/C=C\C=C(/C)C(=O)NC(=CC1=O)C2=O
### Response 1250
